System: Mycobacterium scrofulaceum
PROCEDURE SUMMARY: Antibacterial activity against Mycobacterium scrofulaceum assessed as inhibition of microbial growth incubated for 1 week by MABA method
Format: functional
DETAILS: 168 h, time 1 weeks
MEASURED PARAMETER: log10 of MIC (log10 of the value in µg/mL)
On a log10 scale: recorded MIC, unit µg/mL.

Solved cases below.
# MOL SMILES, REPORTED RESULT
data = [
    ("COc1ccc(Nc2nnnn2-c2cccc(F)c2)cc1", 1.20),
    ("COc1ccc(-n2nnnc2Nc2cccc(Cl)c2)cc1", 2.71),
    ("COc1ccc(Nc2nnnn2-c2ccccc2Cl)cc1", 1.51),
    ("COc1ccc(Nc2nnnn2-c2ccccc2F)cc1", 1.51),
    ("COc1ccc(Nc2nnnn2-c2cccc(Br)c2)cc1", 1.51),
]

Each compound below has a recorded value; state its log10 of MIC.
1. COc1ccc(-n2nnnc2Nc2ccc(F)cc2)cc1
2. COc1ccc(Nc2nnnn2-c2ccc(Br)cc2)cc1
3. COc1ccc(-n2nnnc2Nc2cccc(F)c2)cc1
4. COc1ccc(-n2nnnc2Nc2ccccc2Cl)cc1

Ans:
1. 1.51
2. 2.41
3. 1.20
4. 1.51

Each compound below has a recorded value; state its log10 of MIC.
1. COc1ccc(Nc2nnnn2-c2ccc(F)cc2)cc1
2. COc1ccc(Nc2nnnn2-c2ccccc2Br)cc1
3. NNC(=O)c1ccncc1
4. COc1ccc(-n2nnnc2Nc2cccc(Br)c2)cc1

Ans:
[1.81, 2.11, 1.81, 2.71]
